Target: Peroxisome proliferator-activated receptor gamma (Homo sapiens, UniProt P37231)
Sequence (P37231 whole entry): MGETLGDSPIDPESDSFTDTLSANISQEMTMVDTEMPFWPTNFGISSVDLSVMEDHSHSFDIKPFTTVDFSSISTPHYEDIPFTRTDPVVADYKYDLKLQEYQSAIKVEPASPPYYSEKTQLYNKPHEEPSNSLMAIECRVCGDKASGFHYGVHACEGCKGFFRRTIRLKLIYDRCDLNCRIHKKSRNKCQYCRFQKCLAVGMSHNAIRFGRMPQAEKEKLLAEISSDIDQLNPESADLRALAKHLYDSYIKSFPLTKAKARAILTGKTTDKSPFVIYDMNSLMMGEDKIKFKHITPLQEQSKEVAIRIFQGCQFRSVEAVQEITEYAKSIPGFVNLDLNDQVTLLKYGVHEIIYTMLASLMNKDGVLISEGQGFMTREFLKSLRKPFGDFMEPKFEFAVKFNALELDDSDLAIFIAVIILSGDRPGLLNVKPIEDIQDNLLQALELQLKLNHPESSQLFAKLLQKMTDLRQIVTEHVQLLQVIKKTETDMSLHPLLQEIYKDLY
Experiment: Transactivation of GAL4-tagged human PPARgamma LBD expressed in human HepG2 cells after 20 hrs by luciferase reporter gene assay
Format: cell-based
pEC50: −log10 of the molar value.
readout name: pEC50

Below, each entry is followed by its recorded pEC50 result.
> print(dat)
                        structure.as.smiles  observed.measurement
1  O=C(O)[C@@H](Cc1ccc(-c2ccccc2)cc1)Oc1ccc(-c2ccccc2)cc1                  6.05
2  O=C(O)[C@H](Cc1ccccc1)Oc1ccc(-c2ccc(C[C@@H](Oc3ccc(-c4ccccc4)cc3)C(=O)O)cc2)cc1                  4.60
3  O=C(O)[C@H](Cc1ccc(-c2ccccc2)cc1)Oc1ccc(-c2ccccc2)cc1                  6.92
4  O=C(O)[C@@H](Cc1ccc(-c2ccc(O[C@H](Cc3ccccc3)C(=O)O)cc2)cc1)Oc1ccc(-c2ccccc2)cc1                  4.82

[P] O=C(O)[C@H](Cc1ccc(-c2ccc(O[C@@H](Cc3ccccc3)C(=O)O)cc2)cc1)Oc1ccc(-c2ccccc2)cc1
[Q] O=C(O)[C@H](Cc1ccc(-c2ccc(O[C@H](Cc3ccccc3)C(=O)O)cc2)cc1)Oc1ccc(-c2ccccc2)cc1
Ask: Given the listed records, identify the one among P and Q with higher pEC50. Answer by stating the label of the chosen item.
Result: P
(P: 5.01, Q: 4.74)

* * *

target: Peroxisome proliferator-activated receptor gamma (Homo sapiens, UniProt P37231); experiment: Synergistic agonist activity at human PPARgamma LBD assessed as biotin-labeled PGC1alpha (130 to 154 residues) co-activator recruitment after 1 hr in presence of 0.37 uM rosiglitazone by TR-FRET assay
readout name: pEC50
// pEC50 here means minus log10 of the molar concentration (mol/L)

compound `O=C(O)[C@H](Cc1ccc(-c2ccccc2)cc1)Oc1ccc(-c2ccccc2)cc1` , pEC50 observed: 5.43

* * *

biological target: Peroxisome proliferator-activated receptor alpha (Homo sapiens, UniProt Q07869); experiment: Transactivation of GAL4-tagged human PPARalpha LBD expressed in human HepG2 cells after 20 hrs by luciferase reporter gene assay; assay type: cell-based; conditions: read-out: EC50
Sequence (Q07869 whole entry, the tested form may be a part): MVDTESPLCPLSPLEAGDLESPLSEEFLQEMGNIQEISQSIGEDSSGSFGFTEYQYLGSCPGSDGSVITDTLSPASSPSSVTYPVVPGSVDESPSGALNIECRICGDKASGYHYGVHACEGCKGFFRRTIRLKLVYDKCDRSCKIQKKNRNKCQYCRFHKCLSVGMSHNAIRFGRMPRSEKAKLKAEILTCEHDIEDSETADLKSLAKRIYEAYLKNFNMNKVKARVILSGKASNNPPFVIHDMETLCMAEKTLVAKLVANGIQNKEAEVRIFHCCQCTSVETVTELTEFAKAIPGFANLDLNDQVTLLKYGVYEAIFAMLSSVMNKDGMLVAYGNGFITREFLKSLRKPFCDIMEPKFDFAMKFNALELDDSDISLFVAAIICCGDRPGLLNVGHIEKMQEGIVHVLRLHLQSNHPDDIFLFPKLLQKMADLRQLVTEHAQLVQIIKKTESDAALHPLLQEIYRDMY
readout name: EC50 (µM)

Below, each entry is followed by its recorded EC50 result.
> print(dat)
                        structure.as.smiles  unit.annotation  observed.measurement
1  O=C(O)[C@H](Cc1ccc(-c2ccc(O[C@H](Cc3ccccc3)C(=O)O)cc2)cc1)Oc1ccc(-c2ccccc2)cc1               µM                    27
2  O=C(O)[C@H](Cc1ccc(-c2ccc(O[C@@H](Cc3ccccc3)C(=O)O)cc2)cc1)Oc1ccc(-c2ccccc2)cc1               µM                   5.9
3  O=C(O)[C@H](Cc1ccc(-c2ccccc2)cc1)Oc1ccc(-c2ccccc2)cc1               µM                  1.05

[a] O=C(O)[C@H](Cc1ccccc1)Oc1ccc(-c2ccc(C[C@@H](Oc3ccc(-c4ccccc4)cc3)C(=O)O)cc2)cc1
[b] O=C(O)[C@@H](Cc1ccc(-c2ccccc2)cc1)Oc1ccc(-c2ccccc2)cc1
Ask: Lower EC50: a or b ? Answer by stating the label of the chosen item.
Result: b
(b: 2.6 µM, a: 9.5 µM)

* * *

Target: Peroxisome proliferator-activated receptor gamma (Homo sapiens, UniProt P37231)
Sequence (P37231 whole entry): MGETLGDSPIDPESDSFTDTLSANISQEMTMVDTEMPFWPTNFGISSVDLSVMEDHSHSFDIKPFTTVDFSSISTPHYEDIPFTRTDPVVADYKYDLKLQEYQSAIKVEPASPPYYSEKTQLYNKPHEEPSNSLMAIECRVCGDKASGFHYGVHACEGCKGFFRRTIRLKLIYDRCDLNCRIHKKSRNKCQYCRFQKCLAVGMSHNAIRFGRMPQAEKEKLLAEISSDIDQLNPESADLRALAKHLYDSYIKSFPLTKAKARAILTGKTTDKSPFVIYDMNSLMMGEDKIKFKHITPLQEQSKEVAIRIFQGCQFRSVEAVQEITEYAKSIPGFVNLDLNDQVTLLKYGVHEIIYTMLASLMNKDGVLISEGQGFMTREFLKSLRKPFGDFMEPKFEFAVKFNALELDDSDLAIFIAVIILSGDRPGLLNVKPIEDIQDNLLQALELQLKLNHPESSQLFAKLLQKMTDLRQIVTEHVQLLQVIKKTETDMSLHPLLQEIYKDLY
Test: Synergistic agonist activity at human PPARgamma LBD assessed as biotin-labeled PGC1alpha (130 to 154 residues) co-activator recruitment after 1 hr in presence of 1 uM rosiglitazone by TR-FRET assay
readout name: pEC50
// pEC50 here means minus log10 of the molar concentration (mol/L)

compound `O=C(O)[C@H](Cc1ccc(-c2ccccc2)cc1)Oc1ccc(-c2ccccc2)cc1` , pEC50 observed: 5.55
